# Species: Rattus norvegicus
# procedure-details: Open TG-GATES - Regimen: Single
# Assay type: toxicity, organism-based, Sprague-Dawley
# Design: regimen Single, gender Male, age 6 weeks
# test-settings: in vivo, po, 0 mg/kg, 3 h, tissue Plasma, route gavage, dose level Control
endpoint-name: RALB (g/dL)
Express the result in g/dL but write the number alone.

Worked cases, RALB given:
## Input Fill in: RALB of CN(C)CCC(c1ccc(Cl)cc1)c1ccccn1 (stereo not drawn) is ___
## Output 2.5

## Input Fill in: RALB of `CCCc1cc(=O)[nH]c(=S)[nH]1` is ___
## Output 3.6

## Input Fill in: RALB of `CCOc1ccc(NC(C)=O)cc1` is ___
## Output 2.5

## Input Fill in: RALB of `CN/C(=N/CCSCc1nc[nH]c1C)NC#N` is ___
## Output 3.4

## Input Fill in: RALB of `CC(C)NNC(=O)c1ccncc1` is ___
## Output 3.1

Others:
## Input Fill in: RALB of `Brc1ccccc1` is ___
## Output 2.6

## Input Fill in: RALB of `O=C(OC[C@H]1O[C@@H](OC(=O)c2cc(O)c(O)c(OC(=O)c3cc(O)c(O)c(O)c3)c2)[C@H](OC(=O)c2cc(O)c(O)c(OC(=O)c3cc(O)c(O)c(O)c3)c2)[C@@H](OC(=O)c2cc(O)c(O)c(OC(=O)c3cc(O)c(O)c(O)c3)c2)[C@@H]1OC(=O)c1cc(O)c(O)c(OC(=O)c2cc(O)c(O)c(O)c2)c1)c1cc(O)c(O)c(OC(=O)c2cc(O)c(O)c(O)c2)c1` is ___
## Output 3.6

## Input Fill in: RALB of `CNC(=C[N+](=O)[O-])NCCSCc1ccc(CN(C)C)o1` is ___
## Output 3.3

---

# Species: Rattus norvegicus
# procedure-details: Open TG-GATES - Regimen: Daily Repeat
# Format: toxicity, organism-based, Sprague-Dawley
# Parameters: regimen Daily Repeat, gender Male, age 6 weeks
# test-settings: in vivo, po, 100 mg/kg, […], tissue Blood, route gavage, dose level Low, time 14 day
I'd appreciate it if you marked entries MET when Lym is lower than 80% and NOT MET when it is not.

Some solved entries appear below for comparison.
## Input Below 80% on Lym? Entry `CN/C(=N/CCSCc1nc[nH]c1C)NC#N`
## Output NOT MET

## Input Below 80% on Lym? Entry `Cc1nnc2n1-c1ccc(Cl)cc1C(c1ccccc1Cl)=NC2`
## Output MET

Others:
## Input Below 80% on Lym? Entry `O=C(OC[C@H]1O[C@@H](OC(=O)c2cc(O)c(O)c(OC(=O)c3cc(O)c(O)c(O)c3)c2)[C@H](OC(=O)c2cc(O)c(O)c(OC(=O)c3cc(O)c(O)c(O)c3)c2)[C@@H](OC(=O)c2cc(O)c(O)c(OC(=O)c3cc(O)c(O)c(O)c3)c2)[C@@H]1OC(=O)c1cc(O)c(O)c(OC(=O)c2cc(O)c(O)c(O)c2)c1)c1cc(O)c(O)c(OC(=O)c2cc(O)c(O)c(O)c2)c1`
## Output MET

## Input Below 80% on Lym? Entry `COC(=O)C1=C(C)NC(C)=C(C(=O)OC)C1c1ccccc1[N+](=O)[O-]`
## Output MET

---

# Species on record: Rattus norvegicus
# procedure-details: Open TG-GATES - Regimen: Daily Repeat
# Assay type: toxicity, organism-based, Sprague-Dawley
# Parameters: regimen Daily Repeat, gender Male, age 6 weeks
# test-settings: in vivo, po, 0 mg/kg, […], tissue Blood, route gavage, dose level Control, time 7 day
Known WBC of a selection of compounds
Express the result in x10_2/uL but write the number alone.

Worked cases, WBC given:
## Input Fill in: WBC of CN1C(=O)CCS(=O)(=O)C1c1ccc(Cl)cc1 (stereo not drawn) is ___
## Output 91.2

## Input Fill in: WBC of `Nc1c2c(nc3ccccc13)CCCC2` is ___
## Output 142.5

## Input Fill in: WBC of `O=C(OC[C@H]1O[C@@H](OC(=O)c2cc(O)c(O)c(OC(=O)c3cc(O)c(O)c(O)c3)c2)[C@H](OC(=O)c2cc(O)c(O)c(OC(=O)c3cc(O)c(O)c(O)c3)c2)[C@@H](OC(=O)c2cc(O)c(O)c(OC(=O)c3cc(O)c(O)c(O)c3)c2)[C@@H]1OC(=O)c1cc(O)c(O)c(OC(=O)c2cc(O)c(O)c(O)c2)c1)c1cc(O)c(O)c(OC(=O)c2cc(O)c(O)c(O)c2)c1` is ___
## Output 131.8

## Input Fill in: WBC of `CCCc1cc(=O)[nH]c(=S)[nH]1` is ___
## Output 127.9

## Input Fill in: WBC of `CC(C)NNC(=O)c1ccncc1` is ___
## Output 110.4

## Input Fill in: WBC of `CNC(=C[N+](=O)[O-])NCCSCc1ccc(CN(C)C)o1` is ___
## Output 90.8

## Input Fill in: WBC of `CN/C(=N/CCSCc1nc[nH]c1C)NC#N` is ___
## Output 117.4

## Input Fill in: WBC of `Cc1nnc2n1-c1ccc(Cl)cc1C(c1ccccc1Cl)=NC2` is ___
## Output 92.9

Others:
## Input Fill in: WBC of NC1=NC(=O)C(c2ccccc2)O1 (stereo not drawn) is ___
## Output 103.3

## Input Fill in: WBC of `Brc1ccccc1` is ___
## Output 112.8

## Input Fill in: WBC of `COC(=O)C1=C(C)NC(C)=C(C(=O)OC)C1c1ccccc1[N+](=O)[O-]` is ___
## Output 100.3

## Input Fill in: WBC of `CCOc1ccc(NC(C)=O)cc1` is ___
## Output 93.4

## Input Fill in: WBC of CN(C)CCC(c1ccc(Cl)cc1)c1ccccn1 (stereo not drawn) is ___
## Output 83.1

---

# Organism: Rattus norvegicus
# procedure-details: Open TG-GATES - Regimen: Daily Repeat
# Assay type: toxicity, organism-based, Sprague-Dawley
# Design: regimen Daily Repeat, gender Male, age 6 weeks
# test-settings: in vivo, po, 300 mg/kg, 72 h, tissue Plasma, route gavage, dose level Middle, time 3 day
endpoint-name: A/G
Please reply with the number alone, leaving off any unit.

Worked cases, A/G given:
## Input Fill in: A/G of CN/C(=N/CCSCc1nc[nH]c1C)NC#N [CIMETIDINE] is ___
## Output 1.6

## Input Fill in: A/G of CNC(=C[N+](=O)[O-])NCCSCc1ccc(CN(C)C)o1 [RANITIDINE] is ___
## Output 1.6

## Input Fill in: A/G of Cc1nnc2n1-c1ccc(Cl)cc1C(c1ccccc1Cl)=NC2 [TRIAZOLAM] is ___
## Output 0.9

Switching to the query record.
## Input Fill in: A/G of O=C(OC[C@H]1O[C@@H](OC(=O)c2cc(O)c(O)c(OC(=O)c3cc(O)c(O)c(O)c3)c2)[C@H](OC(=O)c2cc(O)c(O)c(OC(=O)c3cc(O)c(O)c(O)c3)c2)[C@@H](OC(=O)c2cc(O)c(O)c(OC(=O)c3cc(O)c(O)c(O)c3)c2)[C@@H]1OC(=O)c1cc(O)c(O)c(OC(=O)c2cc(O)c(O)c(O)c2)c1)c1cc(O)c(O)c(OC(=O)c2cc(O)c(O)c(O)c2)c1 [TANNIC ACID] is ___
## Output 2.1

---

# Species on record: Rattus norvegicus
# procedure-details: Open TG-GATES - Regimen: Daily Repeat
# Format: toxicity, organism-based, Sprague-Dawley
# Set-up: regimen Daily Repeat, gender Male, age 6 weeks
# test-settings: in vivo, po, 300 mg/kg, […], tissue Blood, route gavage, dose level Middle, time 28 day
I'd appreciate it if you marked entries yes when APTT is lower than 20 s and no when it is not.

Some solved entries appear below for comparison.
## Input Below 20 s on APTT? Entry COC(=O)C1=C(C)NC(C)=C(C(=O)OC)C1c1ccccc1[N+](=O)[O-] [NIFEDIPINE]
## Output yes

## Input Below 20 s on APTT? Entry CNC(=C[N+](=O)[O-])NCCSCc1ccc(CN(C)C)o1 [RANITIDINE]
## Output no

## Input Below 20 s on APTT? Entry O=C(OC[C@H]1O[C@@H](OC(=O)c2cc(O)c(O)c(OC(=O)c3cc(O)c(O)c(O)c3)c2)[C@H](OC(=O)c2cc(O)c(O)c(OC(=O)c3cc(O)c(O)c(O)c3)c2)[C@@H](OC(=O)c2cc(O)c(O)c(OC(=O)c3cc(O)c(O)c(O)c3)c2)[C@@H]1OC(=O)c1cc(O)c(O)c(OC(=O)c2cc(O)c(O)c(O)c2)c1)c1cc(O)c(O)c(OC(=O)c2cc(O)c(O)c(O)c2)c1 [TANNIC ACID]
## Output yes

## Input Below 20 s on APTT? Entry Cc1nnc2n1-c1ccc(Cl)cc1C(c1ccccc1Cl)=NC2 [TRIAZOLAM]
## Output yes

## Input Below 20 s on APTT? Entry CN/C(=N/CCSCc1nc[nH]c1C)NC#N [CIMETIDINE]
## Output yes

Turning now to a further molecule:
## Input Below 20 s on APTT? Entry CCOc1ccc(NC(C)=O)cc1 [PHENACETIN]
## Output no
